This collection of values is drawn from patent US20200040103A1.

Collected IC50 (read off the curve) values appear next to each entry.
system: recombinant human KLK5 (human) (UniProt Q9Y337)
Sequence (Q9Y337 67-293): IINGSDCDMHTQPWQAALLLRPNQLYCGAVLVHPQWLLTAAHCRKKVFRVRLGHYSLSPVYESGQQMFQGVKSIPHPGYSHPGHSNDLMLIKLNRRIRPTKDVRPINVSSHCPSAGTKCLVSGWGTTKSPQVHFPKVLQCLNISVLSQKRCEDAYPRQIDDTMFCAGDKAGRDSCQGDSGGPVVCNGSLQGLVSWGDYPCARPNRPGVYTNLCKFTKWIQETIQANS
assay_procedure: KLK5 direct activity assay, 5 nM KLK5, Boc-VPR-AMC
// units = nM; emit number, no label

9H5 (antibody, V domains shown) VH: QSVKESEGGLFKPTDNLTLTCTVSGFSLSSYGVSWVRQAPGNGLEYIGFIGSGGFAYYASWAKSRSTITRNTNLNTVTLKMTSLTAADTATYFCARDDVGGGKSLDIWGPGTVVTVSV VL: NIVMTQTPASVEAAVGGTVTINCQASQSISSYLSWYQQKSGQRPKLLIFSASTLASGVPSRFTGSGSGTQFTLTISDLQCADAATYYCHQDYTSSNVDNTFGGGTEVVVK    0.8

Below: the item to evaluate.
What does the data say about its IC50 (read off the curve)? Entry: 9H3 (antibody, V domains shown) VH: QSVKESEGGLFKPTDTLTLTCTVSGFSLSGYGVSWVRQAPGKGLEYIGFIGSGGSAYYASWAKSRSTITRNTNLNTVTLKMTRLTAADTATYFCARDNVGGDMSLDIWGPGTLVTVSS VL: DIVMTQTPASVSEPVGGTVTIKCQASQNINNYLSWYQQKPGQPPKQLIYAASTLASGVPSRFKGSGSGTQFTLTISDLECADAATYYCHQDYTSNNVDNTFGGGTEVVVK
0.9
